Test system: HCI-002 (organoid from a triple-negative breast cancer xenograft)
Assay: CTG-3D luminescence at 96 h relative to day-0 seeding control (ratio to day 0); higher = more growth / less cytotoxicity; PDxO 3D drug screen, 96 h, CTG-3D normalised to day-0 seeding control.
Conditions: 0.1 µM; days in culture: 227
Answer each item with its documented CTG-3D luminescence at 96 h.
When you answer, write just the number.

Q: Reported CTG-3D luminescence at 96 h for CNC(=O)c1cccc(-c2ccc3c(N4CCOC[C@@H]4C)nc(N4CCOC[C@@H]4C)nc3n2)c1 [vistusertib] : what is it?
Result: 3.89

Q: // returns reported CTG-3D luminescence at 96 h for input CC[C@H](NC(=O)[C@H](C)NC)C(=O)N1C[C@@H](O)C[C@H]1Cc1c(-c2[nH]c3cc(F)ccc3c2C[C@@H]2C[C@H](O)CN2C(=O)[C@H](CC)NC(=O)[C@H](C)NC)[nH]c2cc(F)ccc12 [birinapant]
Result: 2.45

Q: Name the recorded CTG-3D luminescence at 96 h for Cc1nc(-c2cn3c(n2)-c2ccc(-c4cnn(C(C)(C)C(N)=O)c4)cc2OCC3)n(C(C)C)n1 [taselisib] .
Result: 3.54

Q: Which CTG-3D luminescence at 96 h is listed for O=C(/C=C/c1cccnc1)NCCCCC1CCN(C(=O)c2ccccc2)CC1 [FK866] ?
Result: 0.104

Q: Would you kindly share the measured CTG-3D luminescence at 96 h for CS(=O)(=O)c1ccc(C(=O)Nc2ccc(Cl)c(-c3ccccn3)c2)c(Cl)c1 [vismodegib] ?
Result: 4.14

Q: Item under review: CCc1c2c(nc3ccc(O)cc13)-c1cc3c(c(=O)n1C2)COC(=O)[C@]3(O)CC [SN-38] . Reported CTG-3D luminescence at 96 h?
Result: 1.13

Q: What value of CTG-3D luminescence at 96 h has been reported for the following molecule? CC(=O)O[C@H]1C(=O)[C@@]2(C)[C@H]([C@H](OC(=O)c3ccccc3)[C@]3(O)C[C@H](OC(=O)[C@H](O)[C@@H](NC(=O)c4ccccc4)c4ccccc4)C(C)=C1C3(C)C)[C@]1(OC(C)=O)CO[C@@H]1C[C@@H]2O [paclitaxel]
Result: 0.418

Q: I would be grateful if you could share the reported CTG-3D luminescence at 96 h for NC1(C(=O)N[C@@H](CCO)c2ccc(Cl)cc2)CCN(c2nc[nH]c3nccc2-3)CC1 [capivasertib] .
Result: 6.73

Q: # query: CTG-3D luminescence at 96 h of entry C=CCn1c(=O)c2cnc(Nc3ccc(N4CCN(C)CC4)cc3)nc2n1-c1cccc(C(C)(C)O)n1 [adavosertib]
Result: 6.24

----------
Field: CTG-3D luminescence at 96 h. Provide a value for each of the compounds that follow.
Tested on: HCI-002
Test: CTG-3D luminescence at 96 h relative to day-0 seeding control (ratio to day 0); higher = more growth / less cytotoxicity; PDxO 3D drug screen, 96 h, CTG-3D normalised to day-0 seeding control.
Conditions: 12.5 pM; days in culture: 191

Q: Please give the measured CTG-3D luminescence at 96 h for this compound: CC[C@H](NC(=O)[C@H](C)NC)C(=O)N1C[C@@H](O)C[C@H]1Cc1c(-c2[nH]c3cc(F)ccc3c2C[C@@H]2C[C@H](O)CN2C(=O)[C@H](CC)NC(=O)[C@H](C)NC)[nH]c2cc(F)ccc12 [birinapant]
Result: 2.67

Q: Can you share its CTG-3D luminescence at 96 h? I mean this compound: COc1cccc2c1C(=O)c1c(O)c3c(c(O)c1C2=O)C[C@@](O)(C(=O)CO)C[C@@H]3O[C@H]1C[C@H](N)[C@H](O)[C@H](C)O1 [doxorubicin]
Result: 2.74

Q: Suppose we examine the compound NC(=O)Nc1cc(-c2cccc(F)c2)sc1C(=O)N[C@H]1CCCNC1 [AZD7762] ; what CTG-3D luminescence at 96 h value has been reported?
Result: 2.47

Q: May I ask what CTG-3D luminescence at 96 h has been recorded for NC(=O)c1cccc2cn(-c3ccc([C@@H]4CCCNC4)cc3)nc12 [niraparib] ?
Result: 3.37

Q: State the recorded CTG-3D luminescence at 96 h for this entry: Cc1cc(Nc2ncc(Cl)c(Nc3ccccc3S(=O)(=O)C(C)C)n2)c(OC(C)C)cc1C1CCNCC1 [ceritinib]
Result: 2.47

Q: Using the record for CCN(c1cc(C#CCN2CCOCC2)cc(C(=O)NCc2c(C)cc(C)[nH]c2=O)c1C)[C@H]1CC[C@H](N(C)CCOC)CC1 , report its CTG-3D luminescence at 96 h.
Result: 3.6

Q: If you can, please state the reported CTG-3D luminescence at 96 h value of CNC(=O)c1cccc(-c2ccc3c(N4CCOC[C@@H]4C)nc(N4CCOC[C@@H]4C)nc3n2)c1 [vistusertib] .
Result: 2.7

Q: Fill blank: measured CTG-3D luminescence at 96 h of the compound CCN1CCN(Cc2ccc(Nc3ncc(F)c(-c4cc(F)c5nc(C)n(C(C)C)c5c4)n3)nc2)CC1 [abemaciclib] is ____.
Result: 2.72

Q: What value of CTG-3D luminescence at 96 h has been reported for the following compound? Cc1cc(Nc2ncnc3ccc(NC4=NC(C)(C)CO4)cc23)ccc1Oc1ccn2ncnc2c1 [tucatinib]
Result: 2.63

----------
Tested on: HCI-001 (organoid from a triple-negative breast cancer xenograft)
Test: CTG-3D luminescence at 96 h relative to day-0 seeding control (ratio to day 0); higher = more growth / less cytotoxicity; PDxO 3D drug screen (set 2), 96 h, CTG-3D normalised to day-0 seeding control.
Conditions: 1 µM; days in culture: 365
What CTG-3D luminescence at 96 h was measured for each of the following?

Q: Report CTG-3D luminescence at 96 h for CC(=O)O[C@@]12CO[C@@H]1C[C@H](O)[C@@]1(C)C(=O)[C@H](O)C3=C(C)[C@@H](OC(=O)[C@H](O)[C@@H](NC(=O)OC(C)(C)C)c4ccccc4)C[C@@](O)([C@@H](OC(=O)c4ccccc4)[C@H]21)C3(C)C please.
Result: 1.49

Q: Recorded CTG-3D luminescence at 96 h for C[C@@H](Nc1cc(F)cc(F)c1)c1cc(C(=O)N(C)C)cc2c(=O)cc(N3CCOCC3)oc12 , please?
Result: 1.84

Q: Which CTG-3D luminescence at 96 h value is on record for CO[C@H]1C[C@@H]2CC[C@@H](C)[C@@](O)(O2)C(=O)C(=O)N2CCCC[C@H]2C(=O)O[C@H]([C@H](C)C[C@@H]2CC[C@@H](OCCO)[C@H](OC)C2)CC(=O)[C@H](C)/C=C(\C)[C@@H](O)[C@@H](OC)C(=O)[C@H](C)C[C@H](C)/C=C/C=C/C=C/1C ?
Result: 1.65

Q: For the molecule shown here, Cc1c(CN2CCN(C(=O)[C@H](C)O)CC2)sc2c(N3CCOCC3)nc(-c3cnc(N)nc3)nc12 , give the reported CTG-3D luminescence at 96 h.
Result: 0.879

Q: Recorded CTG-3D luminescence at 96 h of CCOc1ccn(-c2ccc(F)cc2)c(=O)c1C(=O)Nc1ccc(Oc2ccnc(N)c2Cl)c(F)c1 , please.
Result: 2.44

Q: Returns the measured CTG-3D luminescence at 96 h for the input molecule. Input: Nc1cc(C(F)(F)F)c(-c2cc(N3CCOCC3)nc(N3CCOCC3)n2)cn1
Result: 1.82

----------
Can you tell me CTG-3D luminescence at 96 h for the items I'm about to list?
Test system: HCI-001
Test: CTG-3D luminescence at 96 h relative to day-0 seeding control (ratio to day 0); higher = more growth / less cytotoxicity; PDxO 3D drug screen (set 2), 96 h, CTG-3D normalised to day-0 seeding control.
Conditions: 0.1 µM; days in culture: 401
Answer using only a numeral; do not append any unit.

Q: Name the recorded CTG-3D luminescence at 96 h for CO[C@H]1C[C@@H]2CC[C@@H](C)[C@@](O)(O2)C(=O)C(=O)N2CCCC[C@H]2C(=O)O[C@H]([C@H](C)C[C@@H]2CC[C@@H](OCCO)[C@H](OC)C2)CC(=O)[C@H](C)/C=C(\C)[C@@H](O)[C@@H](OC)C(=O)[C@H](C)C[C@H](C)/C=C/C=C/C=C/1C .
Result: 1.07

Q: So what's the measured CTG-3D luminescence at 96 h for this one? CC(C)n1nc(-c2ccc3oc(N)nc3c2)c2c(N)ncnc21
Result: 0.815

Q: Need CTG-3D luminescence at 96 h, item COc1cccc2c1C(=O)c1c(O)c3c(c(O)c1C2=O)C[C@@](O)(C(=O)CO)C[C@@H]3O[C@H]1C[C@H](N)[C@@H](O)[C@H](C)O1 [epirubicin]
Result: 1.06

Q: What does the data say about its CTG-3D luminescence at 96 h? Entry: CS(=O)(=O)CCNCc1ccc(-c2ccc3ncnc(Nc4ccc(OCc5cccc(F)c5)c(Cl)c4)c3c2)o1
Result: 1.59
